B1: library; numbered along this chain (parent)
chain: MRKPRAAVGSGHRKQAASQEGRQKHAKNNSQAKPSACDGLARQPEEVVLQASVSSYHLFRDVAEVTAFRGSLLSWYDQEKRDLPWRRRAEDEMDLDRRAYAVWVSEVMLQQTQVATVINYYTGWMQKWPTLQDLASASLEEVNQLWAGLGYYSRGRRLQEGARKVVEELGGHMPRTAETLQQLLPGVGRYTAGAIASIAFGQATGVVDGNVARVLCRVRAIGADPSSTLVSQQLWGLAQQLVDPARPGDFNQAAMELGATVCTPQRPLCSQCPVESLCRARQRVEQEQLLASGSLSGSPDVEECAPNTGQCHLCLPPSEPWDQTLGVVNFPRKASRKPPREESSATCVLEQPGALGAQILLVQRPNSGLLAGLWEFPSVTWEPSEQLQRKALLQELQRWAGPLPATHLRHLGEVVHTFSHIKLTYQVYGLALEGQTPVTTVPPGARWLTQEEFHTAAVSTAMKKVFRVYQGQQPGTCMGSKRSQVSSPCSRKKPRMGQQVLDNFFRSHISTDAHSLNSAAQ

Variants of: B1
RUN DESCRIPTION: 8OG:A repair function score (normalized; synonymous = 0, nonsense = -1) (normalized log-likelihood score); higher = more repair activity (WT-like);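 also: cells sorted at 72 h after reporter transfection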
REPORTED CONDITIONS: with 8OG:A DNA repair reporter (GFP) in HEK-293 MUTYH KO cells
READOUT: 8OG:A repair function score
Numbers only.

Use the examples below as a reference point.
Q) Need 8OG:A repair function score, item P244E
A) -0.105

Q) Record: V165T
A) -0.312

Q) Record: P44D
A) -0.119

Q) Record: E342V
A) -0.0483

Q) Record: V465D
A) -0.864

Batch request: 8OG:A repair function score per item, same order as input.
1. G201E
2. V500C
3. R213Q
4. P442F
5. E287Q

A)
1. -0.32
2. -0.0118
3. -1.02
4. -0.0534
5. -0.114

Batch request: 8OG:A repair function score per item, same order as input.
1. S518R
2. Q521K
3. F330K
4. H57A
5. S419C

A)
1. -0.0226
2. -0.0417
3. -0.928
4. -0.797
5. -0.434

Batch request: 8OG:A repair function score per item, same order as input.
1. W103F
2. A431P
3. Y100N

A)
1. -0.399
2. -0.0943
3. -1.17

Batch request: 8OG:A repair function score per item, same order as input.
1. V102L
2. W321A
3. L361T
4. S226H

A)
[-0.259, -0.265, -0.222, 0.0371]

Batch request: 8OG:A repair function score per item, same order as input.
1. V348T
2. Q363K
3. G193H
4. C216L
5. Q388A
6. P225G
7. S136P

A)
1. -0.732
2. -0.227
3. -0.0997
4. -0.469
5. 0.235
6. -0.342
7. -0.137

Batch request: 8OG:A repair function score per item, same order as input.
1. V441Q
2. S298K
3. E256H
4. A391W
5. Q450K
6. K3S

A)
1. -0.259
2. -0.0342
3. -1.34
4. -0.428
5. 0.354
6. -0.0766

Batch request: 8OG:A repair function score per item, same order as input.
1. L430Y
2. S487F

A)
1. -0.0889
2. -0.00307

Batch request: 8OG:A repair function score per item, same order as input.
1. S296T
2. T346Q
3. E413S
4. Q394A
5. V104R
6. P494Y
7. V414E

A)
-0.0451
-0.787
0.169
0.04
-1.11
-0.00726
-0.742

Batch request: 8OG:A repair function score per item, same order as input.
1. V328T
2. Q239G

A)
-0.077
-0.228

Just for reference, the supplement of paper PMC11908140 is where these values come from.
